- tested_on: human GLP-1 receptor (human, UniProt P43220 24-463)
- protocol: cell-based or functional assay
Starred links: 1 amine or outer side, 2 acyl side, 3 side chain; linkers in the order of their positions; H or OH if unused. Non-standard residues stand in square brackets, D forms with d. Groups on a side chain read outwards from the residue. *: point of attachment. Butyryl(4-SO2NHCO(CH2)16Tz) = O=C(CCCCCCCCCCCCCCCCc1nnn[nH]1)NS(=O)(=O)CCCC(=O)*; Decanoyl(10-(4-HOOC-PhO)) = O=C(O)c1ccc(OCCCCCCCCCC(=O)*)cc1; C20 diacid = O=C(O)CCCCCCCCCCCCCCCCCCC(=O)*; C18 diacid = O=C(O)CCCCCCCCCCCCCCCCC(=O)*; C16 diacid = O=C(O)CCCCCCCCCCCCCCC(=O)*; γGlu = O=C(O)[C@H](CCC(=O)[*:2])N[*:1]; εLys = N[C@@H](CCCCN[*:1])C(=O)[*:2]; AEEA = NCCOCCOCC(=O)O; Aib = CC(C)(N)C(=O)O; Ahx = NCCCCCC(=O)O
test_readout: Human GLP-1R potency [EC50 (pM)]
Give the value, in units of pM, as a plain number.

Some binders with known Human GLP-1R potency [EC50 (pM)] results, for comparison:
| binder | unit_of_measure | Human GLP-1R potency [EC50 (pM)] |
| --- | --- | --- |
| Compound 0146 (peptide) peptide: H[Aib]EGTFTSDVSSYLEEQAAREFIEWLVRGK(Butyryl(4-SO2NHCO(CH2)16Tz))GGGASELSTAALGRLSAELHELATLPRTETGSGSP-NH2 | pM | 25.7 |
| Compound 0100 (peptide) peptide: HWEGTFTSDVSSYLEEQAARK([AEEA-AEEA-γGlu-Decanoyl(10-(4-HOOC-PhO))])FIEWLVRGK([AEEA-AEEA-γGlu-Decanoyl(10-(4-HOOC-PhO))])GEGGGGGEASELSTAALGRLSAELHELATLPRTETGSGSP-NH2 | pM | 6.8 |

Task: Return Human GLP-1R potency [EC50 (pM)] (reported value) for this binder: Compound 0655 (peptide) peptide: H[Aib]EGTFTSDVSSYLEEQAAREFIAWLVRGRK([AEEA-AEEA-γGlu-17‑(1H-tetrazol-5-yl)heptadecanoyl])GGGGEASELSTAALGRLSAELHELATLPRTETGSGSP-NH2
Result: 3

Task: Return Human GLP-1R potency [EC50 (pM)] (reported value) for this binder: Compound 0007 (peptide) peptide: H[Aib]EGTFTSDVSSYLEGQAAK([AEEA-AEEA-γGlu-C18 diacid])EFIAWLVRGRGGGEASELSTAALGRLSAELHELATLPRTETGSGSP-NH2
Result: 13.3

Task: Return Human GLP-1R potency [EC50 (pM)] (reported value) for this binder: Compound 0397 (peptide) peptide: H[Aib]EGTFTSDVSSYLEEK([AEEA-AEEA-γGlu-C16 diacid])AAREFIAWLVRGRGGGGGEASELSTAALGRLSAELHELATLK([AEEA-AEEA-γGlu-C16 diacid])RTETGSGSP-NH2
Result: 3.8

Task: Return Human GLP-1R potency [EC50 (pM)] (reported value) for this binder: Compound 0659 (peptide) peptide: H[Aib]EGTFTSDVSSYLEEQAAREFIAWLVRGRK([Ahx-Ahx-γGlu-C20 diacid])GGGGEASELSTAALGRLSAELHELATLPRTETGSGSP-NH2
Result: 4.7

Task: Return Human GLP-1R potency [EC50 (pM)] (reported value) for this binder: Compound 0045 (peptide) peptide: H[Aib]EGTFTSDVSSYLEGQAAKEFIAWLVRGRK([εLys-AEEA-AEEA-γGlu-C18 diacid])GGEASELSTAALGRLSAELHELATLPRTETGSGSP-NH2
Result: 19.4

Reference source: patent US20260132182A1
